Test system: pigweed
Assay: Test B pre/postemergence pigweed
Assay type: in vivo, Amaranthus retroflexus
Settings: Preemergence, Rate 125 g/ha; scale 0 to 10, 0 is no effect, 10 is complete control
endpoint: Redroot pigweed plant response rating
// keep it numeric: no unit symbol after the value

[
  {
    "compound": "CC(C)=CCn1c(=O)on(C(=O)N(c2ccc(Cl)cc2)C(C)C)c1=O",
    "endpoint": "Redroot pigweed plant response rating",
    "reported-result": 8
  },
  {
    "compound": "CCc1nc(C)c(Cn2c(=O)on(C(=O)N(c3ccc(Cl)cc3)C(C)C)c2=O)s1",
    "endpoint": "Redroot pigweed plant response rating",
    "reported-result": 0
  },
  {
    "compound": "CC(C)N(C(=O)n1oc(=O)n(CC2CC2)c1=O)c1ccccc1",
    "endpoint": "Redroot pigweed plant response rating",
    "reported-result": 4
  },
  {
    "compound": "CC(=O)C(C)n1c(=O)on(C(=O)N(c2ccccc2)C(C)C)c1=O (stereo not drawn)",
    "endpoint": "Redroot pigweed plant response rating",
    "reported-result": 9
  },
  {
    "compound": "CC(C)C(=O)Cn1c(=O)on(C(=O)N(c2ccc(Cl)cc2)C(C)C)c1=O",
    "endpoint": "Redroot pigweed plant response rating",
    "reported-result": 8
  }
]

Query block: Entry COCn1c(=O)on(C(=O)N(c2ccc(Cl)cc2)C(C)C)c1=O : reported Redroot pigweed plant response rating = ?
Result block: 8

Query block: Entry CCC(=O)Cn1c(=O)on(C(=O)N(c2ccc(Cl)cc2)C(C)C)c1=O : reported Redroot pigweed plant response rating = ?
Result block: 7

Query block: Entry CCOC(=O)C=C(Cn1c(=O)on(C(=O)N(c2ccc(F)cc2F)C(C)C)c1=O)OCC : reported Redroot pigweed plant response rating = ?
Result block: 0

Query block: Entry CC(C)N(C(=O)n1oc(=O)n(CCC2OCCO2)c1=O)c1ccc(Cl)cc1 : reported Redroot pigweed plant response rating = ?
Result block: 0

###

Tested on: giant foxtail
Assay: Test B pre/postemergence giant foxtail
Assay type: in vivo, Setaria faberii
Details: Rate 250 g/ha; Postemergence
endpoint: Plant response rating (0 to 10; 0 is no effect, 10 is complete control), Giant foxtail
// keep it numeric: no unit symbol after the value

Below, each entry is followed by its recorded Plant response rating (0 to 10; 0 is no effect, 10 is complete control), Giant foxtail result.
[
  {
    "compound": "Cc1ccccc1-n1c(=O)on(C(=O)N(c2ccc(F)cc2)C(C)C2CC2)c1=O (stereo not drawn)",
    "reported-result": 0
  },
  {
    "compound": "CC(C)N(C(=O)n1oc(=O)n(CC#C[Si](C)(C)C)c1=O)c1ccc(F)cc1",
    "reported-result": 2
  },
  {
    "compound": "CC(C)N(C(=O)n1oc(=O)n(CC2CC2)c1=O)c1ccc(F)cc1",
    "reported-result": 7
  }
]

Query block: Entry CC(C)N(C(=O)n1oc(=O)n(CC(=O)OC(C)(C)C)c1=O)c1ccc(F)cc1 : reported Plant response rating (0 to 10; 0 is no effect, 10 is complete control), Giant foxtail = ?
Result block: 2

###

Test system: sugar beet
Assay: Test B pre/postemergence sugar beet
Type: in vivo, Beta vulgaris
Settings: Postemergence, Rate 125 g/ha; scale 0 to 10, 0 is no effect, 10 is complete control
endpoint: Sugarbeets plant response rating
// keep it numeric: no unit symbol after the value

[
  {
    "test-smiles": "CCOC(=O)C=C(Cn1c(=O)on(C(=O)N(c2ccc(F)cc2F)C(C)C)c1=O)OCC",
    "reported-result": 0
  },
  {
    "test-smiles": "CC(C)N(C(=O)n1oc(=O)n(CCc2ccccc2)c1=O)c1ccc(F)cc1F",
    "reported-result": 1
  },
  {
    "test-smiles": "CC(C)C(=O)Cn1c(=O)on(C(=O)N(c2ccc(Cl)cc2)C(C)C)c1=O",
    "reported-result": 0
  }
]

# input for lookup
Query block: Entry CC(C)=CCn1c(=O)on(C(=O)N(c2ccc(Cl)cc2)C(C)C)c1=O : reported Sugarbeets plant response rating = ?
Result block: 0
